From: patent US11339171B2

assay: Pharmacokinetics in ICR mice after intravenous and intragastric administration; type: in vivo; conditions: male, ICR, mouse, plasma, po, 5 mg/kg, ICR mice, PO 5 mg/kg, individual animal; read-out: Tmax
recorded_metric: Tmax (h)
Note: unit h is implicit; provide only the numeric part.

Example cases with answers are listed next.
Let me know recorded Tmax for CCOc1cc(OC)c(-c2nc3c(n2C(C)C)[C@@]2(C(=O)Nc4cc(Cl)ccc42)N(c2cc(Cl)ccc2F)C3=O)cn1 , thanks.
4

Let me know recorded Tmax for COc1nc(C2CC2)ncc1-c1nc2c(n1C(C)C)[C@@]1(C(=O)Nc3cc(Cl)ccc31)N(c1cc(Cl)ccc1C)C2=O , thanks.
2

New cases:
Let me know recorded Tmax for CCOc1cc(OC)c(-c2nc3c(n2C(C)C)[C@@]2(C(=O)Nc4cc(Cl)ccc42)N(c2cc(Cl)cnc2C)C3=O)cn1 , thanks.
0.25

Let me know recorded Tmax for COc1cc(C(C)C)ccc1-c1nc2c(n1C(C)C)[C@@]1(C(=O)Nc3cc(Cl)ccc31)N(c1cc(Cl)ccc1C)C2=O , thanks.
1

Let me know recorded Tmax for COc1cc(OC)c(-c2nc3c(n2C(C)C)[C@@]2(C(=O)Nc4cc(Cl)ccc42)N(c2cc(Cl)cnc2C)C3=O)cn1 , thanks.
1

Let me know recorded Tmax for CCOc1cc(OC)c(-c2nc3c(n2C(C)C)[C@@]2(C(=O)Nc4cc(Cl)ccc42)N(c2cc(Cl)ccc2C)C3=O)cn1 , thanks.
0.5

###

experiment: Pharmacokinetics in ICR mice after intravenous and intragastric administration; format: in vivo; conditions: male, ICR, mouse, plasma, iv, 2 mg/kg, ICR mice, IV 2 mg/kg, mean of 3 animals; read-out: AUC(0-t)
recorded_metric: AUC(0-t) (ng·h/mL)
Note: unit ng·h/mL is implicit; provide only the numeric part.

Example cases with answers are listed next.
Let me know recorded AUC(0-t) for CCOc1cc(OC)c(-c2nc3c(n2C(C)C)[C@@]2(C(=O)Nc4cc(Cl)ccc42)N(c2cc(Cl)cnc2C)C3=O)cn1 , thanks.
4350

Let me know recorded AUC(0-t) for COc1cc(OC)c(-c2nc3c(n2C(C)C)[C@@]2(C(=O)Nc4cc(Cl)ccc42)N(c2cc(Cl)cnc2C)C3=O)cn1 , thanks.
1540

For the next question, use this compound.
Let me know recorded AUC(0-t) for COc1nc(OCCF)ncc1-c1nc2c(n1C(C)C)[C@@]1(C(=O)Nc3cc(Cl)ccc31)N(c1cc(Cl)ccc1C)C2=O , thanks.
13400

###

experiment: Pharmacokinetics in ICR mice after intravenous and intragastric administration; type: in vivo; conditions: male, ICR, mouse, plasma, iv, 2 mg/kg, ICR mice, IV 2 mg/kg, individual animals 301-303; read-out: Vz
If the reported Vd equals or exceeds 0.6 L/kg, assign TRUE. If not, assign FALSE.

Is reported Vd greater than or equal to 0.6 L/kg here: COc1cc(OC(C)C)ncc1-c1nc2c(n1C(C)C)[C@@]1(C(=O)Nc3cc(Cl)ccc31)N(c1cc(Cl)cnc1C)C2=O
FALSE

New cases:
Is reported Vd greater than or equal to 0.6 L/kg here: COc1nc(OCCF)ncc1-c1nc2c(n1C(C)C)[C@@]1(C(=O)Nc3cc(Cl)ccc31)N(c1cc(Cl)ccc1C)C2=O
FALSE

Is reported Vd greater than or equal to 0.6 L/kg here: CCOc1ncc(-c2nc3c(n2C(C)C)[C@@]2(C(=O)Nc4cc(Cl)ccc42)N(c2cc(Cl)cnc2C)C3=O)c(OC)n1
FALSE

Is reported Vd greater than or equal to 0.6 L/kg here: COc1cc(C(F)(F)F)ncc1-c1nc2c(n1C(C)C)[C@@]1(C(=O)Nc3cc(Cl)ccc31)N(c1cc(Cl)ccc1C)C2=O
TRUE

Is reported Vd greater than or equal to 0.6 L/kg here: COc1nc(C2CC2)ncc1-c1nc2c(n1C(C)C)[C@@]1(C(=O)Nc3cc(Cl)ccc31)N(c1cc(Cl)cnc1C)C2=O
TRUE
